Entry source: patent US20260201064A1

Consider the following binders; for each one, report its kon.
Biological target: T1, recombinant human ASM protein (human, UniProt P17405 47-630)
T1 construct: Recombinant human ASM in solution; also called acid sphingomyelinase (ASM) protein
T1 sequence: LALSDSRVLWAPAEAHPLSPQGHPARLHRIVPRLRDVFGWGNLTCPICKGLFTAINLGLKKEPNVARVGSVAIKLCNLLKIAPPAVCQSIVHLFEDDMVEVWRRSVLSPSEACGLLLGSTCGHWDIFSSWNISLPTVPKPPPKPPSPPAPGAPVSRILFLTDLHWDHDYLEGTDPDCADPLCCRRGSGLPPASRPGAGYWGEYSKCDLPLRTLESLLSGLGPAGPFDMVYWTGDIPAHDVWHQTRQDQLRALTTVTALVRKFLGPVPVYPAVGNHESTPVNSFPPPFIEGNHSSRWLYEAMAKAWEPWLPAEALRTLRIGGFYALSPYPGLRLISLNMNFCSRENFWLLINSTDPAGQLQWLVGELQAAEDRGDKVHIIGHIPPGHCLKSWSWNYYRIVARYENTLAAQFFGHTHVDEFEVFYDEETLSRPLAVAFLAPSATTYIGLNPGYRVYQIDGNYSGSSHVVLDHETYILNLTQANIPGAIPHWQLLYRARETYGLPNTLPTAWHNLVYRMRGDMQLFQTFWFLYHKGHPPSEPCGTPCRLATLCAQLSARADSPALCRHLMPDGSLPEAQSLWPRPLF
Experiment: BLI (Octet), antibody on AHC sensor
One number for each entry, in M⁻¹ s⁻¹.

Would you please look over these solved cases?
#9104v-L19 (antibody, human IgG4 S228P, lambda, V domains shown, Full-length IgG, lambda) VH: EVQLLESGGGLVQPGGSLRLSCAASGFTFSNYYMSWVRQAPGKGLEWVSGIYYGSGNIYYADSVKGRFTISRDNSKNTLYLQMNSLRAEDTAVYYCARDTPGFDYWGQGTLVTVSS VL: QSVLTQPPSASGTPGQRVTISCTGSSSNIGNNAVNWYQQLPGTAPKLLIYYDLFRPSGVPDRFSGSKSGTSASLAISGLRSEDEADYYCGAWDYSLSAYVFGGGTKLTVLG = 231000
#9104v-L15 (antibody, human IgG4 S228P, lambda, V domains shown, Full-length IgG, lambda) VH: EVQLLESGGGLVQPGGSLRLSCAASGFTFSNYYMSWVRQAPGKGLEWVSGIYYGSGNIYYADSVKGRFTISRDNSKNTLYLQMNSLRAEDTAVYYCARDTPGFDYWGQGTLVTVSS VL: QSVLTQPPSASGTPGQRVTISCTGSSSNIGNNAVNWYQQLPGTAPKLLIYYDIHRPYGVPDRFSGSKSGTSASLAISGLRSEDEADYYCGAWDYSLSAYVFGGGTKLTVLG = 275000

Turning now to a further record.
Query :: Param item = #9104v-L25 (antibody, human IgG4 S228P, lambda, V domains shown, Full-length IgG, lambda) VH: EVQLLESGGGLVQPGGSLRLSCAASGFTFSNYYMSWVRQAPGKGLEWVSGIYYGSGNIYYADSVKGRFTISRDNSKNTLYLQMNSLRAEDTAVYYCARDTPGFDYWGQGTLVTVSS VL: QSVLTQPPSASGTPGQRVTISCTGSSSNIGNNAVNWYQQLPGTAPKLLIYYDSFPASGVPDRFSGSKSGTSASLAISGLRSEDEADYYCGAWDYSLSAYVFGGGTKLTVLG ; retrieve measured kon.
Result :: 294000
